This collection of values is drawn from patent US10072023B2.

test: Solubility in indicated solvent; assay type: physicochemical; settings: % wt soluble in triglyme
quantity_name: Solubility (% wt)

{"columns": ["molecule_smiles", "quantity_name", "operator", "reported_measurement"],
 "data": [
  ["COCCC[Si](CCCOC)(CCCOC)c1ccc(-c2sc(-c3ccc(C(C)(C)C)s3)cc2C2=C(c3cc(-c4ccc(C(C)(C)C)s4)sc3-c3ccc([Si](CCCOC)(CCCOC)CCCOC)s3)C(F)(F)C(F)(F)C2(F)F)s1", "Solubility", ">", 20],
  ["FC(F)(F)c1ccc(-c2cc(C3=C(c4cc(-c5ccc(C(F)(F)F)cc5)sc4-c4ccc(C(F)(F)F)cc4)C(F)(F)C(F)(F)C3(F)F)c(-c3ccc(C(F)(F)F)cc3)s2)cc1", "Solubility", "=", 1],
  ["CCOCCOCCOCCOC(CC)(CC)c1ccc(-c2sc(-c3ccc(C(C)(C)C)s3)cc2C2=C(c3cc(-c4ccc(C(C)(C)C)s4)sc3-c3ccc(C(CC)(CC)OCCOCCOCCOCC)s3)C(F)(F)C(F)(F)C2(F)F)s1", "Solubility", ">", 25],
  ["COc1ccc(-c2cc(C3=C(c4cc(-c5ccc(OC)s5)sc4-c4ccc(OC)s4)C(F)(F)C(F)(F)C3(F)F)c(-c3ccc(OC)s3)s2)s1", "Solubility", "=", 3],
  ["CCOCCOCCOCCOc1ccc(-c2sc(-c3ccc(C(C)(C)C)s3)cc2C2=C(c3cc(-c4ccc(C(C)(C)C)s4)sc3-c3ccc(OCCOCCOCCOCC)cc3)C(F)(F)C(F)(F)C2(F)F)cc1", "Solubility", ">", 25],
  ["COCCOCCOCCOC(C)(C)c1ccc(-c2cc(C3=C(c4cc(-c5ccc(C(C)(C)OCCOCCOCCOC)cc5)sc4-c4ccc(C(C)(C)C)cc4)C(F)(F)C(F)(F)C3(F)F)c(-c3ccc(C(C)(C)C)cc3)s2)cc1", "Solubility", ">", 20],
  ["CC(C)(C)c1ccc(-c2cc(C3=C(c4cc(-c5ccc(C(C)(C)C)cc5)sc4-c4cccs4)C(F)(F)C(F)(F)C3(F)F)c(-c3cccs3)s2)cc1", "Solubility", "=", 2]
]}
